Reported melting point values follow for various molecules

Some entries whose results are on file:
# molecule, result
data = [
    ("CCn1c(Oc2ccc3c(c2)CCC(=O)N3)nnc1[C@@H](C)NS(=O)(=O)c1ccc(Cl)c(Cl)c1", "212 to 223 °C"),
    ("CCCc1ccc(Oc2nnc([C@@H](C)NS(=O)(=O)c3ccc(Cl)c(Cl)c3)n2CC)cc1", "155 to 156 °C"),
]

Param item = `CCn1c(Oc2ccc(N3CCN(C)CC3)cc2)nnc1[C@@H](C)NS(=O)(=O)c1ccc(Cl)c(Cl)c1` ; retrieve measured melting point.
203 to 205 °C

What value of measured melting point is listed for `CCn1c(Oc2cccc(N3CCN(C)CC3)c2)nnc1[C@@H](C)NS(=O)(=O)c1ccc2cccc(Cl)c2c1` ?
143.5 to 144.5 °C

###

// reported inhibition at 10 µM for each item listed
target: human Edg-1 (S1P1) (Homo sapiens); construct: expressed in transfected cells; host or cells: HEK-293; test: S1P1 binding assay: inhibition of [33P]-S1P binding to membrane fraction of HEK-293 cells transferred with the human Edg-1 (S1P1) gene; details: test compound at 10 μM; inhibition of [33P]-S1P binding to the membrane fraction of HEK-293 cells expressing human Edg-1 (S1P1)
Quick reminder: number only, in %, skip the unit.

# molecule, inhibition at 10 µM, %
records = [
    ("CCn1c(Oc2ccc3ccccc3c2)nnc1[C@@H](C)NS(=O)(=O)c1ccc(Cl)c(Cl)c1 [Compound 42]", 102),
    ("CCn1c(Cc2ccc(C)cc2)nnc1[C@@H](C)NS(=O)(=O)c1ccc(Cl)c(Cl)c1 [Compound 56]", 88.3),
    ("CCn1c(Oc2ccc3cc[nH]c3c2)nnc1[C@@H](C)NS(=O)(=O)c1ccc(S(C)(=O)=O)cc1 [Compound 350]", 75),
    ("CCn1c(Oc2cccc(OCCN(C)C)c2)nnc1[C@@H](C)NS(=O)(=O)c1ccc(Cl)c(Cl)c1 [Compound 106]", 110),
]

What inhibition at 10 µM value was documented for this molecule, CCn1c(Oc2ccc3c(c2)N=S=N3)nnc1[C@@H](C)NS(=O)(=O)c1ccc(Cl)c(Cl)c1 [Compound 81] ?
93.2

Name the recorded inhibition at 10 µM for CCn1c(Oc2ccc(F)cc2)nnc1[C@@H](C)NS(=O)(=O)c1ccc(C(=O)OC)n1C [Compound 201] .
84.3

Item CCn1c(Oc2ccc(F)cc2)nnc1[C@@H](C)NS(=O)(=O)c1ccc(C(F)(F)F)cc1 [Compound 128] has what recorded inhibition at 10 µM?
90.7

###

molecular target: human Edg-1 (S1P1) (Homo sapiens); assay: S1P1 binding assay: inhibition of [33P]-S1P binding to membrane fraction of HEK-293 cells transferred with the human Edg-1 (S1P1) gene; conditions: [33P]-S1P 0.1 nM, human Edg-1 (S1P1) HEK-293 membrane fraction, 1 h at 30° C.; read-out: IC50 (concentration at which binding in the absence of the test compound was inhibited by 50%)
readout kind: IC50

Past entries and their recorded results:
# compound, tested target, IC50
measured = [
    ("CCn1c(Oc2cc(C)c(C)c(C)c2)nnc1[C@@H](C)NS(=O)(=O)c1ccc(Cl)c(Cl)c1 [Compound 18]", "human Edg-1 (S1P1) (Homo sapiens)", "≤ 35 nM"),
    ("CCn1c(Oc2ccc(C)c(C)c2)nnc1[C@@H](C)NS(=O)(=O)c1ccc(Cl)c(Cl)c1 [Compound 14]", "human Edg-1 (S1P1) (Homo sapiens)", "6.4 nM"),
    ("CCn1c(Oc2ccc3cc[nH]c3c2)nnc1[C@@H](C)NS(=O)(=O)c1ccc(Cl)c(Cl)c1Cl [Compound 134]", "human Edg-1 (S1P1) (Homo sapiens)", "≤ 35 nM"),
]

# ---- query compound ----
Please state recorded IC50 (tested on human Edg-1 (S1P1) (Homo sapiens)) of CCn1c(Oc2cccc(N3CCN(C)CC3)c2)nnc1[C@@H](C)NS(=O)(=O)c1ccc(Br)c(C)c1 [Compound 111]
≤ 10 nM

###

target: human Edg-1 (S1P1) (Homo sapiens, UniProt P21453); assay: S1P1 binding assay: inhibition of [33P]-S1P binding to membrane fraction of HEK-293 cells transferred with the human Edg-1 (S1P1) gene; conditions: [33P]-S1P 0.1 nM, human Edg-1 (S1P1) HEK-293 membrane fraction, 1 h at 30° C.; read-out: IC50 (concentration at which binding in the absence of the test compound was inhibited by 50%)
Sequence (P21453 whole entry): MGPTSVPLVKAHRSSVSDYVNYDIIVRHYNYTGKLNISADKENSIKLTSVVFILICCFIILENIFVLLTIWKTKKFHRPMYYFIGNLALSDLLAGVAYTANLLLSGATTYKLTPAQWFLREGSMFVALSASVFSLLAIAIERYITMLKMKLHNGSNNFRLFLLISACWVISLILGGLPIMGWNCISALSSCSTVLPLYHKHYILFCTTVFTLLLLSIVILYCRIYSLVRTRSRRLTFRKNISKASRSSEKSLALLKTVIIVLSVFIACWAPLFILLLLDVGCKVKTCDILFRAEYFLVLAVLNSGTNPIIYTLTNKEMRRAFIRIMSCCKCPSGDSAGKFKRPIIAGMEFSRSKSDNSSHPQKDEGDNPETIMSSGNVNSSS
readout kind: IC50

In the examples that follow, each entry is paired with its recorded IC50.
# molecule, tested target, IC50
rows = [
    ("CCn1c(Oc2cccc(N(C)CCN(C)C)c2)nnc1[C@@H](C)NS(=O)(=O)c1ccc(Cl)c(Cl)c1", "human Edg-1 (S1P1) (Homo sapiens, UniProt P21453)", "2.9 nM"),
    ("CCn1c(Oc2ccc(OC)cc2)nnc1[C@@H](C)NS(=O)(=O)c1ccc2c(Cl)cccc2c1", "human Edg-1 (S1P1) (Homo sapiens, UniProt P21453)", "≤ 10 nM"),
]

// next item, IC50 requested
What is its IC50 for human Edg-1 (S1P1) (Homo sapiens, UniProt P21453)? Entry: `CCn1c(Oc2cccc(N3C[C@@H](C)O[C@@H](C)C3)c2)nnc1[C@@H](C)NS(=O)(=O)c1ccc(Cl)c(Cl)c1`
≤ 35 nM

###

target: human Edg-1 (S1P1) (Homo sapiens, UniProt P21453); construct: expressed in transfected cells; host or cells: HEK-293; test: S1P1 binding assay: inhibition of [33P]-S1P binding to membrane fraction of HEK-293 cells transferred with the human Edg-1 (S1P1) gene; conditions: test compound 10 μM; inhibition of [33P]-S1P binding, membrane fraction
Would you please tag the item 1.0 when its inhibition at 10 µM is 90% or above, and 0.0 when it is below?

Worked examples follow.
# molecule, cat
measured = [
    ("CCn1c(Oc2ccc3cc[nH]c3c2)nnc1[C@@H](C)NS(=O)(=O)c1ccc2c(c1)OCCO2", 1.0),
    ("CCn1c(Oc2cccc(N3CCN(C)CC3)c2)nnc1[C@@H](C)NS(=O)(=O)c1cc(Cl)ccc1F", 0.0),
    ("CCn1c(Oc2cccc(N3CCN(C)CC3)c2)nnc1[C@@H](C)NS(=O)(=O)c1ccc(Cl)cc1", 1.0),
]

In plain terms: is recorded inhibition at 10 µM at least 90% for `CCn1c(Oc2ccc3cc[nH]c3c2)nnc1[C@@H](C)NS(=O)(=O)c1ccc(C#N)cc1` ?
0.0

Dear colleague, could you confirm whether `CCn1c(Oc2ccc3cc[nH]c3c2)nnc1[C@@H](C)NS(=O)(=O)c1ccc(F)c(F)c1F` has inhibition at 10 µM at or above 90%?
0.0

Can `CCn1c(Oc2cccc(N3CCN(C)CC3)c2)nnc1[C@@H](C)NS(=O)(=O)c1ccc(I)cc1` be said to have inhibition at 10 µM at or above 90%?
1.0

Reported inhibition at 10 µM at or above 90%? `CCn1c(Oc2cccc(N3CCN(C)CC3)c2)nnc1[C@@H](C)NS(=O)(=O)c1sc(C)nc1C`
1.0

hey, is inhibition at 10 µM for this one >= 90%? `CCn1c(Oc2cccc(N3CCN(C)CC3)c2)nnc1[C@@H](C)NS(=O)(=O)c1ccc(F)c(C#N)c1`
1.0

###

# inhibition at 10 µM values compiled below
biological target: human Edg-1 (S1P1) (Homo sapiens); construct: expressed in transfected cells; host or cells: HEK-293; test: S1P1 binding assay: inhibition of [33P]-S1P binding to membrane fraction of HEK-293 cells transferred with the human Edg-1 (S1P1) gene; conditions: test compound 10 μM; inhibition of [33P]-S1P binding, membrane fraction
Answer with a number only, understood to be in %.

# molecule, measurement units, inhibition at 10 µM
rows = [
    ("CCn1c(Oc2ccc3cc[nH]c3c2)nnc1[C@@H](C)NS(=O)(=O)c1ccc(F)c(F)c1", "%", 95.3),
]

Tell me the measured inhibition at 10 µM of `CCn1c(Oc2cccc(N3CCN(C)CC3)c2)nnc1[C@@H](C)NS(=O)(=O)c1ccc(Cl)c2nonc12` , please.
84.8

Suppose we examine the compound `CCn1c(Oc2ccc3cc[nH]c3c2)nnc1[C@@H](C)NS(=O)(=O)c1ccc(OC(F)F)cc1` ; what inhibition at 10 µM value has been reported?
79.5

Endpoint output: inhibition at 10 µM of `CCn1c(Oc2cccc(N3CCN(C)CC3)c2)nnc1[C@@H](C)NS(=O)(=O)c1ccc2c(c1)CN(C(=O)C(F)(F)F)CC2` . Value?
50.3

So what's the measured inhibition at 10 µM for this one? `CCn1c(Oc2cccc(N3CCN(C)CC3)c2)nnc1[C@@H](C)NS(=O)(=O)c1cc(F)cc(F)c1`
108

Can you look up the measured inhibition at 10 µM of `CCn1c(Oc2cccc(N3CCN(C)CC3)c2)nnc1[C@@H](C)NS(=O)(=O)c1ccc2nsnc2c1` for me?
111

Reported inhibition at 10 µM, compound `CCn1c(Oc2ccc3cc[nH]c3c2)nnc1[C@@H](C)NS(=O)(=O)c1cc(F)c(F)cc1Cl` : ____
82.5

Request the reported inhibition at 10 µM associated with `CCn1c(Oc2cccc(N3CCN(C)CC3)c2)nnc1[C@@H](C)NS(=O)(=O)c1ccc(C(=O)OC)n1C`
112

Returns the measured inhibition at 10 µM for the input compound. Input: `CCn1c(Oc2cccc(N3CCN(C)CC3)c2)nnc1[C@@H](C)NS(=O)(=O)c1c(F)c(Br)cc(F)c1Br`
80.2

Look at this compound and give its reported inhibition at 10 µM. `CCn1c(Oc2ccc3cc[nH]c3c2)nnc1[C@@H](C)NS(=O)(=O)c1cccc(Cl)c1`
72.5

Data request, read-out inhibition at 10 µM, for `CCn1c(Oc2cccc(N3CCN(C)CC3)c2)nnc1[C@@H](C)NS(=O)(=O)c1ccccc1C(=O)OC`
50.7

Give the measured inhibition at 10 µM of `CCn1c(Oc2cccc(N3CCN(C)CC3)c2)nnc1[C@@H](C)NS(=O)(=O)c1cccc(C(F)(F)F)c1` .
115

What measured inhibition at 10 µM goes with `CCn1c(Oc2cccc(N3CCN(C)CC3)c2)nnc1[C@@H](C)NS(=O)(=O)c1ccc2c(I)cccc2c1` ?
102

Name the reported inhibition at 10 µM value associated with the compound `CCn1c(Oc2cccc(N3CCN(C)CC3)c2)nnc1[C@@H](C)NS(=O)(=O)c1ccc(OC)c(OC)c1`
96.6

I have this compound here, `CCn1c(Oc2cccc(N3CCN(C)CC3)c2)nnc1[C@@H](C)NS(=O)(=O)c1ccc(Br)cc1OC(F)(F)F` , and I need its recorded inhibition at 10 µM.
53.5

inhibition at 10 µM lookup needed for `CCn1c(Oc2cccc(N3CCN(C)CC3)c2)nnc1[C@@H](C)NS(=O)(=O)c1c(F)cc(F)cc1Br` , thanks.
83.4

Using the record for `CCn1c(Oc2ccc3cc[nH]c3c2)nnc1[C@@H](C)NS(=O)(=O)c1cc2ccccc2s1` , report its inhibition at 10 µM.
83.1

Which value of inhibition at 10 µM has been reported for `CCn1c(Oc2cccc(N3CCN(C)CC3)c2)nnc1[C@@H](C)NS(=O)(=O)c1cc(C)cc(C)c1` in the records?
107

Name the reported inhibition at 10 µM value associated with the compound `CCn1c(Oc2cccc(N3CCN(C)CC3)c2)nnc1[C@@H](C)NS(=O)(=O)c1cc(C)oc1C(F)(F)F`
101

For the compound shown here, `CCc1ccc(S(=O)(=O)N[C@H](C)c2nnc(Oc3cccc(N4CCN(C)CC4)c3)n2CC)cc1` , give the reported inhibition at 10 µM.
109

# lookup: inhibition at 10 µM of `CCn1c(Oc2cccc(N3CCN(C)CC3)c2)nnc1[C@@H](C)NS(=O)(=O)c1cc(C)c(Cl)cc1Cl`
109

// lookup inhibition at 10 µM for `CCn1c(Oc2cccc(N3CCN(C)CC3)c2)nnc1[C@@H](C)NS(=O)(=O)c1ccc(C(C)=O)cc1`
104
